Hello, the source for this data is patent US9018224B2, in case you need it.

Entries and their measured EC50 follow.
target: human GPR119 (Homo sapiens); assay: Measurement of GPR119 signaling by cAMP (LANCE cAMP kit or HTRF) in HEK293 cells transfected with human GPR119; conditions: agonist cAMP response in HEK293 cells stably transfected with human GPR119; patent does not say which of the two cAMP formats (LANCE or HTRF)
Sequence (Q8TDV5 1-308 limits assumed): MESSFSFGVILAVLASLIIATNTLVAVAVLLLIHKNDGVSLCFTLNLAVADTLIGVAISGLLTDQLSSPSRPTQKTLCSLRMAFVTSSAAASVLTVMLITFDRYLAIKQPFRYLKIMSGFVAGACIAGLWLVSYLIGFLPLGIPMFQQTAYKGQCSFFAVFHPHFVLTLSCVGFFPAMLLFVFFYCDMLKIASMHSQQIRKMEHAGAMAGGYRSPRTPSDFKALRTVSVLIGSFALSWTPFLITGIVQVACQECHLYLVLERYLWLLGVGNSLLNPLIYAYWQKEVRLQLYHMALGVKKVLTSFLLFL
# value in nM; strip the unit string

Solved cases (6 shown):
# COMPOUND, MEASUREMENT TARGET, EC50 / nM
rows = [
    ("O=C(Cc1ccc(OCC[C@@H]2C[C@@H]2C2CCN(c3ncc(Cl)cn3)CC2)cc1F)N1CC(c2cccnc2)C1 [Example 122]", "human GPR119 (Homo sapiens)", 0.66),
    ("COCc1cnc(N2CCC([C@H]3C[C@H]3CCOc3ccc(CC(=O)N4CCC4)cc3)CC2)nc1 [Example 9]", "human GPR119 (Homo sapiens)", 3.8),
    ("COc1cnc(N2CCC([C@H]3C[C@H]3CCOc3cc(F)c(CC(=O)N4CCOCC4)c(F)c3)CC2)nc1 [Example 215]", "human GPR119 (Homo sapiens)", 0.29),
    ("O=C(Cc1ccc(OCC[C@@H]2C[C@@H]2C2CCN(c3ncc(Cl)cn3)CC2)cc1F)N1Cc2nc(-c3ccccc3)[nH]c2C1 [Example 197]", "human GPR119 (Homo sapiens)", 6.8),
    ("CCc1cnc(N2CCC([C@H]3C[C@H]3CCOc3ccc(CC(=O)N4CCC4)c(OC)c3)CC2)nc1 [Example 27]", "human GPR119 (Homo sapiens)", 3.2),
    ("O=C(Cc1ccc(OCC[C@@H]2C[C@@H]2C2CCN(c3ncc(Cl)cn3)CC2)cc1F)N1CCC(O)CC1 [Example 163]", "human GPR119 (Homo sapiens)", 1.7),
]

Ask: GET EC50 where system = human GPR119 (Homo sapiens) and item = O=C(Cc1ccc(OCC[C@@H]2C[C@@H]2C2CCN(c3ncc(Cl)cn3)CC2)cc1F)N1CCn2cnnc2C1 [Example 138]
Reply: 1.5

Ask: Consider the compound CC1(C)CCN1C(=O)Cc1ccc(OCC[C@@H]2C[C@@H]2C2CCN(c3ncc(Cl)cn3)CC2)cc1F [Example 97] tested on human GPR119 (Homo sapiens); state its EC50.
Reply: 3.2

Ask: Give reported EC50 for COCc1cnc(N2CCC([C@H]3C[C@H]3CCOc3ccc(CC(=O)N(C)C4COC4)c(F)c3)CC2)nc1 [Example 54] (human GPR119 (Homo sapiens))
Reply: 2.5

Ask: Give measured EC50 for CC(C)(C)NC(=O)c1nnc2n1CCN(C(=O)Cc1ccc(OCC[C@@H]3C[C@@H]3C3CCN(c4ncc(Cl)cn4)CC3)cc1F)C2 [Example 178] (human GPR119 (Homo sapiens)).
Reply: 2.8

Ask: Write EC50 of O=C(Cc1ccc(OCC[C@@H]2C[C@@H]2C2CCN(c3ncc(Cl)cn3)CC2)c(F)c1)N1CCC1 [Example 250] ; system used: human GPR119 (Homo sapiens)
Reply: 2.2

Ask: Report EC50 under test system human GPR119 (Homo sapiens) for O=C(Cc1ccc(OCC[C@@H]2C[C@@H]2C2CCN(c3ncc(Cl)cn3)CC2)cc1F)NC1CCCC1F (stereo partly drawn) [Example 111] .
Reply: 3

Ask: Using human GPR119 (Homo sapiens) as the test system, report measured EC50 of O=C(Cc1ccc(OCC[C@@H]2C[C@@H]2C2CCN(c3ncc(Cl)cn3)CC2)cc1)N1CCC1 [Example 1] .
Reply: 0.79
